tested on: MALME-3M melanoma; experiment: NCI-60 one-dose screen, 48 h; conditions: 10 µM
The panel holds about 83,000 compounds, 20% with a hit somewhere; the sample as a whole holds those more often. Activity calls are given as the source filed them. Rule for the calls: active = growth percent below 10; inactive = the rest.
Possible outcomes: active, inactive

INSERT INTO measurements (query_smiles, class) VALUES
  ('COc1ccc(C(=O)/C=C/c2cc(C(F)(F)F)cc(C(F)(F)F)c2)cc1S(N)(=O)=O', 'active'),
  ('Cc1ccc(/C=C/C(=O)c2ccc(NC(=O)CSc3nnc(-c4c[nH]c5ccccc45)n3-c3ccccc3)cc2)cc1', 'inactive'),
  ('CO[C@H]1CSS[C@@H]1Cn1nc(-c2ccc(Oc3ccccc3)cc2)c2c(N)ncnc21', 'active'),
  ('CC[C@@]1(O)C(=O)OCc2c1cc1n(c2=O)Cc2c-1nc1cc(F)c(C)c3c1c2[C@@H](N)CC3', 'active'),
  ('Cc1ccc(/C(N)=N/c2sc(-c3ccccc3)nc2-c2ccccc2)cc1', 'inactive'),
  ('Cc1ccc2nc(COc3ccc(C(=O)NNC(=S)NCCc4ccccc4)cc3)[nH]c2c1', 'inactive'),
  ('COc1cccc2nc(Nc3ccc(F)c(NC(=O)c4ccc(CN5CCN(C)CC5)c(C(F)(F)F)c4)c3)ccc12', 'active'),
  ('CC(=C(c1ccc(OCCCN(C)C)cc1)c1ccc(OCCCN(C)C)cc1)c1ccccc1', 'active'),
  ('CC(=O)c1ccc(Nc2nc(SCCC(C)C)nc(-c3ccc(F)cc3)c2C#N)cc1', 'inactive');

====

Listed compounds paired with reported growth
test system: OVCAR-4 ovarian; experiment: NCI-60 one-dose screen, 48 h (100 = growth as untreated, 0 = no growth, -100 = all killed); settings: 10 µM
This is part of a sample that, as a whole, favours compounds with a hit. Of some 83,000 tested, about 20% had one in any assay.
parameter: growth (%)

INSERT INTO measurements (compound, measurement) VALUES
  ('COc1ccc(CN2[C@@H](C(=O)NCc3ccc(C(=O)NO)cc3)Cc3c([nH]c4ccccc34)[C@@H]2C)cc1', 40.1),
  ('O=C(NO)c1ccc(CNC(=O)[C@H]2Cc3c([nH]c4ccccc34)[C@H](c3ccc(Cl)cc3)N2)cc1', 39.7),
  ('CC1(C)CC[C@]2(C(=O)NCCCNCCCCNCCCN)CC[C@]3(C)C(=CC[C@@H]4[C@@]5(C)Cc6c([nH]c7ccccc67)C(C)(C)[C@@H]5CC[C@]43C)[C@H]2C1', 102),
  ('COc1ccc(/C(C)=N/N=C2C(=O)N(C)c3ccc(Br)cc32)cc1S(N)(=O)=O', 48.4),
  ('CC(C)c1ccc(C(=O)Nc2sc3c(c2C(N)=O)CCC(=O)C3=O)cc1', 91.5),
  ('Cc1ccc2nc(COc3ccc(C(=O)NNC(=S)NCCc4ccccc4)cc3)[nH]c2c1', -4.14),
  ('C=C1CCC2C3(C)COC(c4cccc(F)c4)OC3CCC2(C)C1CC(O)C1=CCOC1=O (stereo not drawn)', 67.1),
  ('CN(C)c1nc(NCCNS(=O)(=O)c2ccc(C(=O)/C=C/c3ccccc3)cc2)nc(Nc2ccc(F)cc2)n1', 25.2);

====

test system: EKVX NSCLC; experiment: NCI-60 one-dose screen, 48 h (100 = growth as untreated, 0 = no growth, -100 = all killed); details: 10 µM
This is part of a sample that, as a whole, favours compounds with a hit. Of some 83,000 tested, about 20% had one in any assay.
parameter: growth (%)

INSERT INTO measurements (compound, tgt, measure_unit, measurement) VALUES
  ('CO[C@@H]1CSSC1Cn1nc(-c2ccc(Oc3ccccc3)cc2)c2c(N)ncnc21 (stereo partly specified)', 'EKVX NSCLC', '%', 25.3),
  ('Cc1ccc(-c2nc(Nc3ccccc3C(=O)O)c3ccccc3n2)cc1', 'EKVX NSCLC', '%', 13.1),
  ('O=C(Nc1ccncc1)c1ccc(-n2c(=O)[nH]c3ccccc3c2=O)cc1', 'EKVX NSCLC', '%', 94.2),
  ('O=C(c1ccc([N+](=O)[O-])c([N+](=O)[O-])c1O)n1[nH]c(=O)c2ccccc2c1=O', 'EKVX NSCLC', '%', 66.4),
  ('COc1ccccc1[C@H]1C(C(=O)c2ccc(Cl)cc2)C2(N[C@@H]1c1ccccc1)C(=O)Nc1ccc(Cl)cc12 (stereo partly specified)', 'EKVX NSCLC', '%', 8.9),
  ('CN1CCN(c2ccc(Nc3nc(NCCCNC(=O)c4ccc(Cl)cc4)c4sccc4n3)cc2)CC1', 'EKVX NSCLC', '%', 88.3),
  ('O=C(c1ccc(O)cc1)C1[C@H](c2ccccc2Br)[C@@H](c2ccccc2)NC12C(=O)Nc1ccc(Br)cc12 (stereo partly specified)', 'EKVX NSCLC', '%', 32),
  ('CC(=C(c1ccc(OCCCN(C)C)cc1)c1ccc(OCCCN(C)C)cc1)c1ccccc1', 'EKVX NSCLC', '%', -96.1),
  ('COc1nccnc1NS(=O)(=O)c1ccc(NC2=C(Cl)C(=O)c3nc(C)ccc3C2=O)cc1', 'EKVX NSCLC', '%', 88.2),
  ('O=c1[nH][nH]c(Nc2ccccc2)c1N=Nc1ccc(F)cc1', 'EKVX NSCLC', '%', 72.1),
  ('O=C1Nc2ccc(Cl)cc2/C1=C/c1cccc(OCc2ccccn2)c1', 'EKVX NSCLC', '%', 10.7),
  ('Nc1nc(Nc2ccc(Cl)cc2)nn1Cc1cccc(Br)c1', 'EKVX NSCLC', '%', 22.3),
  ('O=C(c1ccccc1)n1ccc(-c2cc3cc(Br)ccc3oc2=O)n1', 'EKVX NSCLC', '%', -1.71),
  ('Cc1nc2c(cnn2-c2ccccc2)c(=O)n1-c1ccc(NC(=O)c2ccc(F)cc2)cc1', 'EKVX NSCLC', '%', 30.2),
  ('CC(=C(c1ccc(OCCN2CCCCC2)cc1)c1ccc(OCCN2CCCCC2)cc1)c1ccccc1', 'EKVX NSCLC', '%', 73.6),
  ('CN1CCN(c2ccc(C(=O)/C=C/c3ccc(C#N)cc3)cc2)CC1', 'EKVX NSCLC', '%', 82),
  ('N#Cc1c(Cl)nc(SCc2ccc(F)cc2)nc1-c1ccc(F)cc1', 'EKVX NSCLC', '%', 89.1),
  ('CCOC(=O)C1=C(N)N(c2ccc(Cl)cc2)C2=C(C(=O)CC(C)(C)C2)C1c1ccc(N2CCOCC2)cc1 (stereo unspecified)', 'EKVX NSCLC', '%', 74.6),
  ('O=C1Nc2ccc(F)cc2/C1=C/c1cccc(OCc2ccccn2)c1', 'EKVX NSCLC', '%', 28.3),
  ('CC(=O)c1cc(C(=O)N2c3ccccc3Sc3ccccc32)n2ccc(C)cc12', 'EKVX NSCLC', '%', 53.1),
  ('O=c1oc2ccc(-c3ccc(F)cc3F)cc2c(=O)n1-c1ccc(F)c(Cl)c1', 'EKVX NSCLC', '%', -9.05);
